Target desc: Amine oxidase [flavin-containing] B (Bos taurus, UniProt P56560)
Sequence (P56560 whole entry): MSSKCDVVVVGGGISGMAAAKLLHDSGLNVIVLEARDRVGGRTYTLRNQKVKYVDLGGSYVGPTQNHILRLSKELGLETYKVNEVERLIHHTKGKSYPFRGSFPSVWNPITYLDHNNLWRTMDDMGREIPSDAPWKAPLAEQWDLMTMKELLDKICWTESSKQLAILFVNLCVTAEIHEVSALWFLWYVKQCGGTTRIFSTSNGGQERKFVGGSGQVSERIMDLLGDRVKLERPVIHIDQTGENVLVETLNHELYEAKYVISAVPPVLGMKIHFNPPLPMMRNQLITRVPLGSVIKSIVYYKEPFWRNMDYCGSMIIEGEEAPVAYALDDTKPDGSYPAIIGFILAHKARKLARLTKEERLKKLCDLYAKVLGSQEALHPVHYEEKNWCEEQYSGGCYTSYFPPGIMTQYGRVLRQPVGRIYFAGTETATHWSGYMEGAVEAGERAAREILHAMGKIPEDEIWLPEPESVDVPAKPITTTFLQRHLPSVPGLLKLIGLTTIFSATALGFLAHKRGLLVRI
One threshold, 300 µM, splits the recorded IC50 values: lower ones are 1.0, equal or higher ones are 0.0.

Compound: COC(=O)C(Cc1ccccc1)N1C(=O)c2ccccc2NC1c1ccco1 (stereo not given)
Category label: 0.0
//
Compound: COC(=O)CCCCCN1C(=O)c2ccccc2NC1c1ccc(Cl)cc1 (stereo not given)
Category label: 1.0
//
Compound: COC(=O)CCCNC(=O)c1ccccc1N
Category label: 0.0
//
Compound: CC(C(=O)NN)N1C(=O)c2ccccc2NC1c1ccco1 (stereo not given)
Category label: 0.0

We now examine a further compound.
q: # strict comparison: is reported IC50 < 300 µM? input = COC(=O)CN1C(=O)c2ccccc2NC1c1ccc(Cl)cc1 (stereo not given)
a: 1.0
